// reported T/C per item
Test system: CD2F1 mice, L1210 leukemia ip, survival T/C
Test: NCI In Vivo Anticancer Drug Screen. Data for tumor model L1210 Leukemia (intraperitoneal) in CD2F1 (CDF1) mice
Settings: endpoint: mean survival time; dose: 50.0 mg/kg/injection; schedule: Q04DX003 (ip); vehicle: saline; higher = longer survival
Toxic doses and inconclusive results are not listed.
MEASUREMENT KIND: T/C

INSERT INTO assay_data (compound, test_value) VALUES
  ('c1ccc2c(CC3=NCCN3)cccc2c1', '102 % of control'),
  ('CCCC(C)c1ccccc1O (stereo unspecified)', '105 % of control'),
  ('CCOC(=O)/C=C\C(=O)O.[Mn]', '104 % of control'),
  ('CC(=O)c1ccc(Oc2ccc(/C(C)=N\N=C(N)N)cc2)cc1', '108 % of control'),
  ('COC(=O)C(N)CCCCNc1ccc2c(cc1=O)C(NC(C)=O)CCc1cc(OC)c(OC)c(OC)c1-2 (stereo unspecified)', '92 % of control'),
  ('[Cl][Pt+2][Cl].[NH-]C(C(=O)O)C([NH-])C(=O)O (stereo unspecified)', '100 % of control');
